settings: buffer; pH 7.4; 200.0 µM
# solubility kinetic per entry
The reply should be a number in µg/mL, with the unit left off.

CCOc1cc(CN2CCc3c([nH]c4ccccc34)C2)ccc1OC | 32.8
N#Cc1c(-c2ccccc2)nc(-c2cccnc2)[nH]c1=O | 40.2
Cc1ccc(OCC(O)CN2CCc3ccccc3C2)c(C)c1.Cl (configuration not stated) | 30.7
O=S(=O)(Nc1ccccn1)c1cc(Cl)ccc1Cl | 9.2

Then this molecule:
Challenge: Look up solubility kinetic for this molecule: COC(=O)c1ccc(CN2C(=O)NC3(CCC(C)CC3)C2=O)cc1 (configuration not stated)
Response given: 7.5

###

conditions: buffer; pH 7.4; 200.0 µM
measuredAttribute: log10 solubility kinetic (log10 of the value in µg/mL)
// units: µg/mL (pre-log); metric: solubility kinetic; scale: log10

Example cases with answers are listed next.
Cc1oc(C(C)(C)C)cc1C(=O)N1CCN(c2ccc(C(F)(F)F)cn2)CC1 | 0.81
Cc1cc2cc(CNC(=S)NC3CCCCC3)ccc2[nH]1 | 1.10
COc1ccc(C(C#N)=C2C=CC(=NO)C=C2)cc1 | 0.62
CCS(=O)(=O)N1CCC(C(=O)Oc2ccccc2)CC1 | 1.59
COc1ccc(NC(=O)COC(=O)c2ccc3ccccc3n2)c(OC)c1 | 0.48

Challenge: Look up log10 solubility kinetic for this molecule: `Cc1cc(C(=O)CN2C(=O)NC3(CCCCC3)C2=O)c(C)n1C`
Response given: 1.28

Challenge: Okay, and `Cc1cc(C)c2c(c1)N[C@H](c1cccs1)[C@@H]1CCO[C@H]21` ?
Response given: 0.23

Challenge: Okay, and CCc1ccc(C(=O)CN2C(=O)NC(C)(c3ccc(C)cc3)C2=O)cc1 (stereo not given) ?
Response given: 0.32

###

settings: buffer; pH 7.4; 200.0 µM
# solubility kinetic per entry
The reply should be a number in µg/mL, with the unit left off.

C(=C\c1ccccc1)/CSc1nc2ncccc2[nH]1 | 8.9
CC(=O)Nc1ccc(N=Cc2c(O)ccc3ccccc23)cc1 | 7.6
CCCCn1c(Nc2ccc(OC)cc2)nc2ccccc21 | 0.6

Challenge: Look up solubility kinetic for this compound: `C/C(=N\OC(=O)Nc1ccc(Cl)cc1)c1ccc(F)c(F)c1`
Response given: 5.2

###

settings: buffer; pH 7.4; 200.0 µM
just bin them by solubility kinetic: one: < 0.005 mg/mL; two: ≥ 0.005 mg/mL and < 0.04 mg/mL; three: ≥ 0.04 mg/mL

Example entries begin here.
Cn1c(NC(=O)c2ccc(F)cc2)nc2ccccc21 | one
CC(C)CN(C(=O)c1ccco1)c1nc2ccccc2s1 | one
CC1=C(C)C(OCCCl)N(c2cc(O)c(Cl)cc2F)C1=O (stereo not given) | three
CC1CCN(S(=O)(=O)c2c[nH]c(=O)[nH]c2=O)CC1 | three
COC(=O)c1nn(-c2cccc(Cl)c2)cc(OC)c1=O | three
O=C(c1cc(-c2ccc(Cl)cc2Cl)on1)N1CCCC1 | one
O=C(Cc1cccc2ccccc12)Nc1c(F)cccc1F | one
CNC(=S)/N=C/NOCc1c(Cl)cccc1Cl | two

Challenge: Please let me know in which category the item `COc1cc(Br)c(Br)cc1N` belongs.
Response given: two

Challenge: Okay, and `COc1ccc(NC(=O)COC(=O)CCc2ccccc2)c(OC)c1` ?
Response given: two

Challenge: Okay, and `CCN1C(=O)/C(=C/N2CCc3ccccc3C2)SC1=S` ?
Response given: one

Challenge: Okay, and `O=C(O)CNC(=S)N(Cc1ccccc1F)C1CCCCC1` ?
Response given: three

Challenge: Okay, and `N/C(=N\OC(=O)C1CC1)c1ccc([N+](=O)[O-])s1` ?
Response given: two

Challenge: Okay, and `Cc1ccc[n+](CC(=O)Nc2nc3ccccc3s2)c1.[Cl-]` ?
Response given: three

Challenge: Okay, and `CC1(C)CC(=O)C=C(Nc2ccc(F)c(Cl)c2)C1` ?
Response given: three

###

settings: buffer; pH 7.4; 200.0 µM
// label = Condition met if solubility kinetic is not less than 30 µg/mL, otherwise Condition not met

Example entries begin here.
CCC(=O)Nc1ccc(OCC2CCCO2)cc1 (centres undefined) | Condition met
OC(CN1CCCCC1)Cn1c2ccccc2c2ccccc21 (centres undefined) | Condition met
CCCN1CCC(NCC(C)c2ccccc2)CC1 (centres undefined) | Condition met
O=C(NCC1CCCO1)c1ccccc1NS(=O)(=O)c1cccc([N+](=O)[O-])c1 (centres undefined) | Condition met

Challenge: Is it the case that `O=C(NCc1csc(-c2cccs2)n1)c1cccc(Cl)c1` has solubility kinetic reaching or exceeding 30 µg/mL?
Response given: Condition not met

Challenge: Okay, and `CCOc1ccccc1CNC(=O)CCc1cn(C)c2ccccc12` ?
Response given: Condition not met

Challenge: Okay, and `CCCCc1ccc(NC(=O)c2cnccn2)cc1` ?
Response given: Condition not met

Challenge: Okay, and `O=C(NCc1cccnc1)Nc1ccc2c(c1)OCO2` ?
Response given: Condition met

Challenge: Okay, and `COc1cc(C(=O)OCC(C)=O)cc(NC(=O)c2ccco2)c1OC` ?
Response given: Condition not met

Challenge: Okay, and Cc1cccc(C)c1NC(=S)N(CCN(C)C)C(C)c1ccccn1 (centres undefined) ?
Response given: Condition met

Challenge: Okay, and `Cc1ccc(NCc2ccco2)cc1C.O=C(O)C(=O)O` ?
Response given: Condition not met

Challenge: Okay, and `CC(=O)c1ccccc1NC(=O)c1ccc(OCc2c(C)noc2C)cc1` ?
Response given: Condition not met

Challenge: Okay, and `NC(=O)c1ccc(NC(=O)COC(=O)c2cc3ccccc3cc2O)cc1` ?
Response given: Condition not met

Challenge: Okay, and `Cc1ccccc1OCCn1cc(C=O)c2ccccc21` ?
Response given: Condition not met

Challenge: Okay, and Cc1cccc(CC(C)NC(=O)CCc2nnc(-c3ccccc3)o2)n1 (centres undefined) ?
Response given: Condition met

###

# solubility kinetic per entry
details: buffer; pH 7.4; 200.0 µM
The reply should be a number in µg/mL, with the unit left off.

Example cases with answers are listed next.
O=C(c1cccnc1)N1c2ccccc2Sc2ccccc21 | 43.1
COc1ccc(NC(=S)NC(=O)c2ccccc2)cn1 | 35.8
CCn1c(NC(=O)C(C)C)c(-c2ccccc2)c(=O)c2ccccc21 | 30.9
O=C(c1ccc(Oc2cc(Cl)cc(Cl)c2)o1)N1CCCCC1 | 7.7
S=C(Nc1ccc2[nH]ccc2c1)NC1CCCCC1 | 37

Then this compound:
Challenge: Look up solubility kinetic for this compound: `OC1(C#CCN2CCCC2)c2ccccc2-c2ccccc21`
Response given: 11.4

###

settings: buffer; pH 7.4; 200.0 µM
# solubility kinetic per entry

CCCn1cnc2c(oc3ccccc32)c1=O | > 34.2 µg/mL
COc1ccc(/C=C2\SC(=N)N(c3ccc(F)cc3)C2=O)cc1 | < 0.4 µg/mL
CCN(CC)C(=O)c1cc(Cl)ccc1NC(=O)c1ccco1 | > 48.1 µg/mL
CC(OC(=O)CNC(=O)C1CCCCC1)C(=O)NCc1ccccc1 (configuration not stated) | > 52 µg/mL
CC(=O)NCCc1nc2ccccc2n1Cc1cc(C)ccc1C | > 48.2 µg/mL
CC1CN(C(=O)c2ccccc2NS(=O)(=O)c2ccc(Cl)cc2)CC(C)O1 (configuration not stated) | > 61.3 µg/mL
COC(=O)C(CC(C)C)NC(=O)c1cccs1 (configuration not stated) | > 38.3 µg/mL
CCOc1ccc(N)cc1OC.Cl | > 30.6 µg/mL

Challenge: Look up solubility kinetic for this molecule: `COC(=O)CN1C(=O)N/C(=C/c2ccccc2OC)C1=O`
Response given: > 43.5 µg/mL

Challenge: Okay, and `COc1cccc(N(CC(=O)N2CCOCC2)S(C)(=O)=O)c1` ?
Response given: > 49.3 µg/mL

Challenge: Okay, and `Cc1cc(/C=C/C(=O)O)c(C)n1-c1ccc(Cl)cc1` ?
Response given: > 41.4 µg/mL

Challenge: Okay, and `CCCc1cc(=O)[nH]c(SCC(=O)Nc2cc(S(=O)(=O)N3CCOCC3)ccc2Cl)n1` ?
Response given: 63.8 µg/mL

###

# solubility kinetic per entry
details: buffer; pH 7.4; 200.0 µM
The reply should be a number in mg/mL, with the unit left off.

O=C(COc1ccc(Cl)cc1)N1CCCCCCC1 | 0.0318
O=C(Cn1cccc1C(=O)c1ccccc1)NCc1ccc(Cl)cc1 | 0.0011
O=C(CNS(=O)(=O)c1ccc(F)c(Cl)c1)N1CCCC1 | 0.0441

Challenge: Look up solubility kinetic for this compound: `COc1ccc(C(=O)c2cnc[nH]2)cc1OC`
Response given: 0.033

Challenge: Okay, and `CS(=O)(=O)CC(=O)Nc1ccc2nc3n(c(=O)c2c1)CCCCC3` ?
Response given: 0.0432

###

conditions: buffer; pH 7.4; 200.0 µM
measuredAttribute: solubility kinetic (µg/mL)
The reply should be a number in µg/mL, with the unit left off.

S=C(NCCc1ccccc1)NCc1cccc(Cl)c1 | 13.9
CC(C)Cc1ccc(C(=O)NCc2ccc3c(c2)OCO3)o1 | 28.3

Then this molecule:
Challenge: Look up solubility kinetic for this molecule: CCCOc1ccc(N2CC(C(=O)NC3=NCCS3)CC2=O)cc1 (stereo unspecified)
Response given: 43.8
